Reference source: the Immune Epitope Database (IEDB)

Target entity: HLA-A*01:01
Assay method text: IEDB peptide-MHC binding, purified MHC/direct/fluorescence; filed as Kd, often an IC50 or EC50 that approximates it; bounds were set here for any values at or beyond the usual limits of such assays
Test settings: source organism: Camelpox virus M-96
Measured attribute: Kd

query: Given the sequence SQEDNHFSL , write its reported Kd.
result: ≥ 20 µM

###

Target entity: HLA-B*46:01
Assay method text: IEDB peptide-MHC binding, purified MHC/competitive/fluorescence; filed as Kd, often an IC50 or EC50 that approximates it; bounds were set here for any values at or beyond the usual limits of such assays
Test settings: source organism: dengue virus type 1
Measured attribute: pKd
Units for pKd: none; it is -log10 of a concentration expressed in mol/L.

query: Fill in pKd for FTMRLLSPV tested with HLA-B*46:01.
result: 7.82

###

Target entity: HLA-B*07:02
Assay method text: IEDB peptide-MHC binding, purified MHC/competitive/fluorescence; filed as Kd, often an IC50 or EC50 that approximates it; bounds were set here for any values at or beyond the usual limits of such assays
Test settings: source organism: Influenza A virus (A/Leningrad/1954/1(H1N1))
pKd: −log10 of the molar value.
Measured attribute: pKd

query: Read off the recorded pKd for LVSLGAISF
result: ≤ 4.70

###

Target entity: HLA-A*01:01
Assay method text: IEDB peptide-MHC binding, purified MHC/direct/fluorescence; filed as Kd, often an IC50 or EC50 that approximates it; bounds were set here for any values at or beyond the usual limits of such assays
Test settings: source organism: Campylobacter jejuni
Measured attribute: pKd
API: returns pKd as number; meaning -log10 of concentration in mol/L.

query: Give the reported value of pKd for this record: KNDAVYIGY
result: 4.72

###

Target entity: HLA-A*11:01
Assay method text: IEDB peptide-MHC binding, purified MHC/competitive/fluorescence; bounds were set here for any values at or beyond the usual limits of such assays
Test settings: source organism: Vaccinia virus
Measured attribute: IC50 (nM)
Express it in nM; write the number only.

query: Tell me its IC50 given LLFGIKCIK as the entry.
result: 734

###

Target entity: HLA-A*26:01
Assay method text: IEDB peptide-MHC binding, purified MHC/competitive/radioactivity; filed as Kd, often an IC50 or EC50 that approximates it; bounds were set here for any values at or beyond the usual limits of such assays
Test settings: source organism: Mammarenavirus caliense
Measured attribute: Kd

query: Fill in Kd for SEFKSRFFIW tested with HLA-A*26:01.
result: ≥ 69.7 µM

###

Target entity: HLA-A*24:03
Assay method text: IEDB peptide-MHC binding, purified MHC/competitive/fluorescence; filed as Kd, often an IC50 or EC50 that approximates it; bounds were set here for any values at or beyond the usual limits of such assays
Test settings: source organism: Escherichia coli F11
Measured attribute: Kd (nM)
Respond with the bare value in nM.

query: Report value only: Kd, HLA-A*24:03, YTLNNGGAF
result: 15.1

###

Target entity: HLA-A*02:17
Assay method text: IEDB peptide-MHC binding, purified MHC/competitive/radioactivity; filed as Kd, often an IC50 or EC50 that approximates it; bounds were set here for any values at or beyond the usual limits of such assays
Test settings: source organism: Dengue virus 1 Singapore/S275/1990
Measured attribute: Kd
Please append the unit to your numeric answer.

query: Supply recorded Kd for VLMLVAHYAI here.
result: 1830 nM
